Attribute: cytotoxicity at 70.5 h
Assay: Human HepG2 cell viability assay in 384 well format
Assay type: toxicity, cell-based
Set-up: dose 125 nL, time 70.5 hour; concentration not given beside the values
Details: HepG2 cells, read-out: Inhibition
assay_metric: cytotoxicity at 70.5 h (%)

- compound: "CN(Cc1ccc2c(c1)OCCO2)c1ncc(S(N)(=O)=O)s1"
  unit_abbreviation: "%"
  number: 8.35
- compound: "COc1cc(F)ccc1NC(=O)NCCNC(=O)OC(C)(C)C"
  unit_abbreviation: "%"
  number: -14
- compound: "COc1ccc(C(C)NC(=O)NCCc2ccc(C)nc2)c(OC)c1 (configuration not stated)"
  unit_abbreviation: "%"
  number: 24
- compound: "O=C(CN1CCCCC1)NCc1cccnc1-n1cnc2ccccc21"
  unit_abbreviation: "%"
  number: -4.51
- compound: "Cc1cc(C)cc(CCC(=O)NC(C)c2nnn[nH]2)c1 (configuration not stated)"
  unit_abbreviation: "%"
  number: -2.97
- compound: "CNc1nc(CS(=O)(=O)c2ccccc2)cs1"
  unit_abbreviation: "%"
  number: -7.87
- compound: "Cc1cnn(CCC(=O)NS(=O)(=O)N2CCCc3ccccc32)c1"
  unit_abbreviation: "%"
  number: -5.92
- compound: "CC(=O)NCCNC(=O)C(c1ccccc1C)N(C)C (configuration not stated)"
  unit_abbreviation: "%"
  number: 12.4
- compound: "CC(=O)c1cccc(NC(=O)Cn2cc(-c3ccccc3)ncc2=O)c1"
  unit_abbreviation: "%"
  number: -6.47
- compound: "Cc1nc[nH]c1-c1nccn1-c1ccc(C(N)=O)c(N2CCCC2)c1"
  unit_abbreviation: "%"
  number: 20.6
- compound: "c1ccc(OCc2ccncc2)c(CNC2CCc3ncnn3C2)c1 (configuration not stated)"
  unit_abbreviation: "%"
  number: 17.2
- compound: "Cc1ccsc1CN(CCN(C)C)Cc1ccccn1"
  unit_abbreviation: "%"
  number: -4.97

Data provenance is ChEMBL document CHEMBL3507680.
